- Test system: A. baumannii strain 98-37-09
- protocol-text: AK assay 384-well format, Prestwick library screening
- Assay type: cell-based, Acinetobacter baumannii
- settings: Acinetobacter baumannii, 983709, 3 h; 50 μM final drug concentration; planktonic; cutoff for positive-scoring molecules 3-fold increase; read-out: AK-based Prestwick Library Screening Results, A. baumannii (fold increase in extracellular AK activity)
Counter-ions that a name gives are not always drawn.
The entries below come with measured fold induction at 50 µM values attached.
observation-type: fold induction at 50 µM

compound | tested-system | observed-result
O=c1cc(-c2ccccc2)oc2cc(O)cc(O)c12 | A. baumannii strain 98-37-09 | 0.2
O=C1OC(CN2CCOCC2)CN1/N=C/c1ccc([N+](=O)[O-])o1 (stereo not shown) [Furaltadone hydrochloride] | A. baumannii strain 98-37-09 | 1
C[C@]12CC[C@H](O)C[C@H]1CC[C@@H]1[C@@H]2C[C@@H](O)[C@]2(C)[C@@H](C3=CC(=O)OC3)CC[C@]12O | A. baumannii strain 98-37-09 | 0.6
Nc1ccc(S(N)(=O)=O)cc1 [Sulfanilamide] | A. baumannii strain 98-37-09 | 1.5
